The binders listed here are annotated with their koff.
- test.target: T1, NativeRPtag(large)_with_Tags_and_Cys (Thermoanaerobacter tengcongensis)
- T1 construct: Unlabeled in anisotropy assays; coupled through the engineered N-terminal Cys to SulfoLink agarose or maleimide plates in column, pull-down and ELISA assays
- T1 chain: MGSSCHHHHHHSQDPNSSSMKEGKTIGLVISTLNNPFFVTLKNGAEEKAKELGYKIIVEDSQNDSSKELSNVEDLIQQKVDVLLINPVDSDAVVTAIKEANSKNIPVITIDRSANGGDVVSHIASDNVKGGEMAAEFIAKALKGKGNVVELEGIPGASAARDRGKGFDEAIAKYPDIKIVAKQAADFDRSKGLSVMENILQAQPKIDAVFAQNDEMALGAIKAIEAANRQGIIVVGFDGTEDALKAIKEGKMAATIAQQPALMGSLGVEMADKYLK
- test.name: fluorescence anisotropy, competitor chase
No end group written: not given here. *: point of attachment. RhodamineB = CCN(CC)c1ccc2c(-c3ccccc3C(=O)*)c3ccc(=[N+](CC)CC)cc-3oc2c1
The reply should be a number in s⁻¹, with the unit left off.

# example entries with known answers
# binder, scale.unit, koff
records = [
    ("RhodamineB-KIPNFIPAELKLITKA [RPtag(small) Nd2, Cd3, e18a]", "s⁻¹", 0.000883),
    ("RhodamineB-GEKIPNAIPAELKLITKENVQ [RPtag(small) f7a]", "s⁻¹", 0.00105),
    ("RhodamineB-PNFIPAELKLITKENVQ [RPtag(small) Nd4]", "s⁻¹", 0.000467),
    ("RhodamineB-FIPAELKLITKENVQ [RPtag(small) Nd6]", "s⁻¹", 0.00108),
    ("RhodamineB-IPNFIPAELKLITKENVQ [RPtag(small) Nd3]", "s⁻¹", 0.0002),
    ("RhodamineB-GEKIPNFIPAELKLITKE [RPtag(small) Cd3]", "s⁻¹", 0.002),
    ("RhodamineB-GEKAPNFIPAELKLITKENVQ [RPtag(small) i4a]", "s⁻¹", 0.0001),
]

Now consider a different binder.
*Q* Return reported koff; argument: RhodamineB-LKLITKENVQ [RPtag(small) Nd11]
*A* 0.02

Origin of values: patent US20200102347A1
